- STUDY SYSTEM: T1, recombinant human LAG3 (Sino Biological Inc.) (human, UniProt P18627 23-450)
- T1 construct: Bought recombinant protein; also called CD223; biotinylated recombinant human LAG3
- T1 sequence (looked up): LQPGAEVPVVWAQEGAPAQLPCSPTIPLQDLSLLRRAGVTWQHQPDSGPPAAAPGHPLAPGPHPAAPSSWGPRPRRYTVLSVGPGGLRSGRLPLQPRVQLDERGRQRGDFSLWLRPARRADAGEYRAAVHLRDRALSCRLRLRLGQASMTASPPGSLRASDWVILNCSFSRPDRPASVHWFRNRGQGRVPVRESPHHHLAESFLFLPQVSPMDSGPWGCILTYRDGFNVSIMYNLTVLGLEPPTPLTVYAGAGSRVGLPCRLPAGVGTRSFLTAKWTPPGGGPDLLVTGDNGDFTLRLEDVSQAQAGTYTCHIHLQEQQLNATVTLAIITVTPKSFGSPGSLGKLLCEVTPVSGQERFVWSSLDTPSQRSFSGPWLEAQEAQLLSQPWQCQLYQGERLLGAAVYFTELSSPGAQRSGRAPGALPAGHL
- EXPERIMENT NOTES: ELISA, recombinant human LAG3 coated, Fab detected by anti-FLAG-HRP
PARAMETER: binding result

Query :: Check the records and state binding result for DNV3.18 Fab (Fab, V domains shown, Light-chain-shuffled Fab variant of DNV3) VH: EVQLVQSGAEVKKPGASVKVSCKASGYTFTSYGISWVRQAPGQGLEWMGWISAYNGNTNYAQKLQGRVTMTTDTSTSTAYMELRSLRSDDTAVYYCARDSSSWWVDAFDIWGQGTMVTVSS VL: SVVTQPPSVSEAPRQRVTISCSGSSSNIGNNAVNWYQQLPGKAPKLLIYYDDLLPSGVSDRFSGSKSGTSASLAISGLQSEDEADYYCAAWDDSLNAVVFGGGTKLTVL
Result :: binds

Query :: Check the records and state binding result for DNV3.15 Fab (Fab, V domains shown, Light-chain-shuffled Fab variant of DNV3) VH: EVQLVQSGAEVKKPGASVKVSCKASGYTFTSYGISWVRQAPGQGLEWMGWISAYNGNTNYAQKLQGRVTMTTDTSTSTAYMELRSLRSDDTAVYYCARDSSSWWVDAFDIWGQGTMVTVSS VL: LPVLTQPPSASGTPGQRITISCSGSSSNIGSATVNWYQHLPGTAPKLLIYGDNQRPSGVADRFSGSKSGTSASLEIRGLQSEDEADYYCAAWDGSLDGVMFGGGTRVNVL
Result :: binds

Query :: Check the records and state binding result for DNV3.14 Fab (Fab, V domains shown, Light-chain-shuffled Fab variant of DNV3) VH: EVQLVQSGAEVKKPGASVKVSCKASGYTFTSYGISWVRQAPGQGLEWMGWISAYNGNTNYAQKLQGRVTMTTDTSTSTAYMELRSLRSDDTAVYYCARDSSSWWVDAFDIWGQGTMVTVSS VL: PYVLTQPPSVSGAPRQRVTISCSGGSSNIASNAVNWYQQFPGKAPKLLVYYDDLLPSGVSDRFSGSKTGTSASLAISALQSEDEADYFCAAWDDSLNGVLFGGGTKLTVL
Result :: binds
